# procedureSummary: Drug excretion in po dosed human faeces
# Format: ADME, organism-based, Feces
# assaySetup: read-out: Drug excretion
propertyName: dose excreted (%)
Write it as a number; the unit % goes unstated.

Request: Dear colleague, I am looking for the recorded dose excreted of the following compound: CC(=O)Oc1ccccc1C(=O)Nc1ncc([N+](=O)[O-])s1 [NITAZOXANIDE]
Response: 64

----------
# Test system: Rattus norvegicus
# procedureSummary: Elimination half life in Sprague-Dawley rat assessed as RM-4848-glucuronide level at 6.4 mg/kg, iv
# Type: ADME, organism-based
# assaySetup: in vivo
propertyName: beta t1/2

Request: Dear colleague, I am looking for the recorded beta t1/2 of the following compound: CC(=O)Oc1ccccc1C(=O)Nc1ncc(Cl)s1
Response: 2.5 to 3.2 h
